Test system: P388 leukemia ip, CD2F1 mice, survival T/C
protocol: NCI In Vivo Anticancer Drug Screen. Data for tumor model P388 Leukemia (intraperitoneal) in CD2F1 (CDF1) mice
details: endpoint: median survival time; dose: 100.0 mg/kg/injection; schedule: Q04DX002 (ip); vehicle: Klucel (hydroxypropylcellulose) (HPC); higher = longer survival
Toxic doses and inconclusive results are not listed.
property: T/C

// worked examples, T/C included
{"columns": ["compound", "study.system", "T/C"],
 "data": [
  ["O=C(N/N=C/c1cc(Br)ccc1[O-])c1ccccc1O.O=C(N/N=C/c1cc(Br)ccc1[O-])c1ccccc1O.[Co+2]", "P388 leukemia ip, CD2F1 mice, survival T/C", "90 % of control"],
  ["CCC(=O)c1c(C)oc2ccc(O)cc12", "P388 leukemia ip, CD2F1 mice, survival T/C", "91 % of control"],
  ["CCCCCCCCCCCCCCCCCCOC(=O)C1CCCN1 (centres undefined)", "P388 leukemia ip, CD2F1 mice, survival T/C", "101 % of control"],
  ["Cc1nnsc1-c1nnc2sc(C(F)(F)F)nn12", "P388 leukemia ip, CD2F1 mice, survival T/C", "100 % of control"],
  ["O=C(O)/C(=N/NC(=O)c1ccccc1)c1ccccc1", "P388 leukemia ip, CD2F1 mice, survival T/C", "98 % of control"]
]}

Now examine the next entry.
Requested read-out: T/C. Entry: Cc1ccc(NC(=O)CCSC(=O)Nc2ccc(C)cc2)cc1
101 % of control

###

System: P388 leukemia ip, CD2F1 mice, survival T/C
protocol: NCI In Vivo Anticancer Drug Screen. Data for tumor model P388 Leukemia (intraperitoneal) in CD2F1 (CDF1) mice
details: endpoint: median survival time; dose: 100.0 mg/kg/injection; schedule: Q01DX009 (ip); vehicle: saline; higher = longer survival
Inconclusive results and toxic doses are left out.
property: T/C

{"columns": ["compound", "T/C"],
 "data": [
  ["N#C/C(=C\\C=C\\c1ccccc1)c1nc(-c2ccc(Cl)cc2)cs1", "91 % of control"],
  ["O=Nc1c[nH]c(=O)[nH]c1=O", "98 % of control"],
  ["NCc1cc(=O)[nH]o1", "92 % of control"],
  ["Oc1c2ccccc2c(O)c2nc3ccccc3nc12", "99 % of control"]
]}

Requested read-out: T/C. Entry: O=C(CC(=O)N1CCN(c2ccccc2)CC1)N1CCN(c2ccccc2)CC1
93 % of control

What about CC1=NN(c2cc(Cl)c(S(=O)(=O)O)cc2Cl)C(=O)C1N=Nc1ccc(S(=O)(=O)O)cc1 (configuration not stated) ?
100 % of control

What about NC(=S)N/N=C/C=N/NC(N)=S ?
90 % of control

What about CCCN(CCC)CC(=O)Nc1c(Cl)cccc1Cl ?
105 % of control

What about O=C(NO)C(O)C(O)C(O)CO (configuration not stated) ?
104 % of control

What about COc1cc(C=Nc2c[nH]c(=O)[nH]c2=O)ccc1O ?
96 % of control

What about N=C(N)c1cccc([N+](=O)[O-])c1 ?
96 % of control

What about CC1=CC2ON=C(c3c(C)cc(C)cc3C)N2N(C(=O)c2ccccc2)C=C1 (configuration not stated) ?
93 % of control

Measured values drawn from PubChem BioAssay AID330 for this set.
